Recorded growth inhibition by entry
ASSAY_METHOD_TEXT: NCI Yeast Anticancer Drug Screen. Data for the rad14 strain (AID 159);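 note: 0% = growth of vehicle-treated control cultures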
CONDITIONS: S. cerevisiae rad14 strain growth inhibition; at 33.0 µM; hits give high values
This is part of a sample that, as a whole, favours compounds with a hit. Of some 79,000 tested, about 15% had one in any assay.
Express the result in % but write the number alone.

Answered cases to consult:
# COMPOUND, REPORTED_VALUE
data = [
    ("CCCCC(CC)C(=O)[O][Sn]([CH2]CCC)([CH2]CCC)[O]C(=O)C(CC)CCCC (stereo not drawn)", 90),
    ("CCCCCCCCCCCCNC(C)=O", 1),
    ("COc1cc2ccnc(-c3c4ccccc4c(N)c4c(OC)c(OC)ccc34)c2cc1OC", 8),
    ("COC(=O)C1=C(C(=O)OC)C(C(=O)OC)C(C(=O)OC)C(C(=O)OC)(C(=O)OC)C(C(=O)OC)=C1C(=O)OC (stereo not drawn)", 14),
    ("CC[N+](CC)(CC)c1ccccc1", -33),
    ("Cc1c(-c2ccccn2)ccc2ccccc12", 6),
    ("S=c1[nH]c2cc3ccccc3cc2[nH]1", -10),
    ("OC(/C=C/c1ccccc1)(Cc1cc(-c2ccccc2)n[nH]1)c1ccccc1 (stereo not drawn)", 17),
    ("CC[n+]1oc(C(=O)c2ccc(Cl)cc2)c(-c2ccccc2)c1-c1ccccc1.[Cl][Fe]([Cl])([Cl])[Cl]", 28),
    ("NC(N)=NS(=O)(=O)c1ccc(Nc2c3ccccc3nc3c(C(=O)NCCO)cccc23)cc1", 2),
]

Measured growth inhibition, COc1cc(/C=C2\CCC/C(=C\c3ccc(O)c(OC)c3)C2=O)ccc1O : 4

Measured growth inhibition, NC(=O)C(=O)NNc1ccccc1 : 66

Measured growth inhibition, Oc1[nH]c2ccccc2c1N=NC(=S)N1CCCCC1 : 97

###

ASSAY_METHOD_TEXT: NCI Yeast Anticancer Drug Screen. Data for the mec2-1 strain (AID 157)
CONDITIONS: S. cerevisiae mec2-1 strain, at 50.0 µM (retest, dose inferred, filed as 5.0)
The panel holds about 79,000 compounds, 15% with a hit somewhere; the sample as a whole holds those more often. Calls of active or inactive are those of the source. No stated cut-off is given here; in the data, active means growth inhibition above about 70%; inactive means the rest.
Permitted responses: t for active, f for inactive

# COMPOUND, ASSIGNED_LABEL
records = [
    ("COc1cccc2c1C(=O)c1c(O)c3c(c(O)c1C2=O)C[C@@](O)(C(C)=O)C[C@@H]3OC1CC(OC(C)=O)C(OC(C)=O)C(C)O1 (stereo partly specified)", "f"),
    ("Cc1cc(N(CCOS(C)(=O)=O)CCOS(C)(=O)=O)ccc1C=Nc1ccc(-c2csc(-c3ccccc3)n2)c(Cl)c1", "t"),
]

Any idea what this test logged for C[C@@](O)(/C=C/[C@H]1CC=CC(=O)O1)[C@@H](C[C@@H](O)\C=C/C=C\C=C\CO)OP(=O)(O)O ?
f

Any idea what this test logged for COc1cc(/C=C2\NC(=O)N(/C=C3\C(=O)Oc4ccccc4C3=O)C2=O)ccc1O ?
t

Any idea what this test logged for Cc1ccc2nc(-c3cccc([N+](=O)[O-])c3)oc(=O)c2c1 ?
t

Any idea what this test logged for OC1(c2ccccc2)CCCc2ccc(Cl)cc21 (stereo unspecified) ?
f

Any idea what this test logged for CCC(C)NC1=NCC(C)S1 (stereo unspecified) ?
f

Any idea what this test logged for Cc1ccccc1N=C(NO)c1ccccc1 ?
f

Any idea what this test logged for CCCCN(CCCC)C(=O)/C=C/c1ccccc1 ?
t

Any idea what this test logged for NC(=O)c1c([N+](=O)[O-])cc(C(F)(F)F)cc1[N+](=O)[O-] ?
f

Any idea what this test logged for CCCCCOC(=S)SC(=O)OCC ?
t

###

ASSAY_METHOD_TEXT: NCI Yeast Anticancer Drug Screen. Data for the sgs1 mgt1 strain (AID 161);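 note: 0% = growth of cultures given vehicle only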
CONDITIONS: S. cerevisiae sgs1 mgt1 strain, at 50.0 µM (retest, dose inferred, filed as 5.0)
Compounds without any hit were thinned out: in the full panel of roughly 79,000, 15% have a hit. Calls of active or inactive are those of the source. Cut-off read from the data, not from the text of the source: active = growth inhibition above about 70%; inactive = the rest.
Permitted responses: 1.0 (active), 0.0 (inactive)

Sample answers from the record:
# COMPOUND, ASSIGNED_LABEL
rows = [
    ("COc1ccc(/C=C/C(=O)c2ccccc2)cc1OC", 0.0),
    ("CC(=O)Nc1ccc(/C=C/[N+](=O)[O-])cc1", 1.0),
    ("CNC(=O)OCc1c(COC(=O)NC)c2n(c1C)-c1ccc(OC)cc1CCC2", 1.0),
    ("c1ccc2c(OCC3CO3)cccc2c1 (configuration not stated)", 1.0),
    ("CCCCCCCCCCCC1N=C(N)NC(CCCO)=C1C(=O)OC (configuration not stated)", 1.0),
]

Any idea what this test logged for O=c1nc2n(Cc3ccccc3)c3ccccc3nc-2c(=O)[nH]1 ?
1.0

Any idea what this test logged for Cc1c2cc[n+](Cc3ccc(I)cc3)cc2c(C)c2c1[nH]c1ccccc12 ?
1.0

###

ASSAY_METHOD_TEXT: NCI Yeast Anticancer Drug Screen. Data for the CLN2oe strain (AID 163);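 note: 0% = growth of vehicle-only control cultures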
CONDITIONS: S. cerevisiae CLN2oe strain, at 3.7 µM, hits give high values
About 79,000 compounds went through this panel and 15% of them were active in at least one assay; those are over-represented in the sample as a whole.
MEASURED_PARAMETER: growth inhibition (%)
Express the result in % but write the number alone.

# MOLECULE, growth inhibition [%]
measured = [
    ("CC1=C(C(=O)NCc2ccccc2)C(c2ccccc2)C(C(=O)NCc2ccccc2)=C(C)N1", 1),
    ("NC(=O)C(=O)NNc1ccccc1", 4),
    ("CC1=C(SCc2ccccc2)C(=O)c2ccccc2C1=O", -22),
    ("COc1ccc2c(c1)n([O-])c1ccccc1[n+]2=O", -7),
    ("CC1SC2(C(=O)Nc3ccc(Cl)cc32)N(c2ccc(Cl)cc2)C1=O (centres undefined)", -7),
    ("CCc1c[n+]([O-])c(C)cc1[N+](=O)[O-]", -4),
    ("CCCCCCCCCCCCCCCCCC(=O)NCCCN(C)C", -37),
    ("CCCCCCCCCCCCNC(C)=O", -1),
    ("O=C1C(Br)=C(c2ccccc2)O/C1=C/C(=O)c1ccc(Br)cc1", 1),
    ("C[C@]12CC[C@H](O)CC1=CC[C@@H]1C2CC[C@]2(C)C(=O)NC(=O)CC12 (some centres undefined)", -45),
]

Measured growth inhibition, CCOc1ccccc1N=Cc1c2ccccc2cc2ccccc12 : 36

Measured growth inhibition, O=C(CC(C(=O)O)N1CCOCC1)c1ccccc1 (centres undefined) : -9

Measured growth inhibition, O=[N+]([O-])c1cc[n+]([O-])cc1 : -4

Measured growth inhibition, Cc1cc(N(CCOS(C)(=O)=O)CCOS(C)(=O)=O)ccc1C=Nc1ccc(-c2csc(-c3ccccc3)n2)c(Cl)c1 : 37

Measured growth inhibition, CCO/C(C)=C(/C#N)C(N)=S : -4

Measured growth inhibition, CC(C)c1ccc(NC(=S)NC(=O)c2ccccc2)cc1 : -21

Measured growth inhibition, CCOC(=O)CC1(C(=O)OCC)c2[nH]c3ccccc3c2CCN1Cc1ccccc1 (centres undefined) : 2

Measured growth inhibition, CC(O)=NC(Cc1ccc2ccccc2c1)C(O)=NC(Cc1ccc(Cl)cc1)C(O)=NC(Cc1c[nH]c2ccccc12)C(O)=NC(CO)C(O)=NC(Cc1ccc(O)cc1)C(O)=NC(CCCN=C(N)N)C(O)=NC(CC(C)C)C(O)=NC(CCCN=C(N)N)C(=O)N1CCCC1C(O)=NC(C)C(=N)O (centres undefined) : 0

Measured growth inhibition, O=[N+]([O-])c1ccc(N/N=C/Cc2ccccc2)c([N+](=O)[O-])c1 : 1

Measured growth inhibition, O=C(O)CNC(=S)Nc1ccccc1 : -9

Measured growth inhibition, O=C1NC(=O)c2ccc([N+](=O)[O-])c3cccc1c23 : -1

Measured growth inhibition, CC(C)/C(Cl)=N\OC(=O)Nc1ccc(F)cc1F : 11

Measured growth inhibition, S=C1SCN(C2CCCCC2)CN1C1CCCCC1 : -19

Measured growth inhibition, Cc1cc2cc3cc(C)c(N)cc3nc2cc1N : 8

Measured growth inhibition, CCOC(=O)C1N=[N+](c2ccccc2)C(=O)/C1=C\n1c(=S)[nH]c2ccc([N+](=O)[O-])cc21 (centres undefined) : -1

Measured growth inhibition, CS(=O)(=O)SCc1ccc([N+](=O)[O-])cc1 : 7

Measured growth inhibition, CN1CCN(C(=O)/C=C/C(=O)c2ccccc2)CC1 : 6

Measured growth inhibition, Oc1[nH]c2ccccc2c1N=NC(=S)N1CCCCC1 : -4

Measured growth inhibition, CCCCc1ccc(-n2c(C)c(COC(=O)NC)c(COC(=O)NC)c2C)cc1 : -1
